Recorded EC50 Rat APJ Receptor values for a group of binders are listed next.
Target: T1, rat APJ receptor (rat, UniProt Q9JHG3 1-377)
T1 sequence (looked up): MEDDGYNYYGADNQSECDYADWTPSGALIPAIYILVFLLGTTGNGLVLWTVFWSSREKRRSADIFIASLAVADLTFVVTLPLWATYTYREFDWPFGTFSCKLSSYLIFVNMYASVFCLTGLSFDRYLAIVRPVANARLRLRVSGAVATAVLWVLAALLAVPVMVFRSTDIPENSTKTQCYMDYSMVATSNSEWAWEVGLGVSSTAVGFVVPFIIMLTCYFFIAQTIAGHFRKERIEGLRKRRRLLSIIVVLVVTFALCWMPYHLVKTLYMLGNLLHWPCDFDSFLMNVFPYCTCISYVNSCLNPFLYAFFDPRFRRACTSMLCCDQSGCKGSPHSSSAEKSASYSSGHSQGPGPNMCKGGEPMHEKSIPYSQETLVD
Assay: cell-based or functional assay
Starred links: 1 amine or outer side, 2 acyl side, 3 side chain; linkers in the order of their positions; H or OH if unused. Non-standard residues stand in square brackets, D forms with d. No end group written: not given here. rhArg = homoarginine with ψ(CH2NH) reduced amide bond, N=C(N)NCCCC[C@@H](C[*:2])N[*:1]; rHis = histidine with ψ(CH2NH) reduced amide bond, c1nc(C[C@@H](C[*:2])N[*:1])c[nH]1; Oic = O=C(O)[C@@H]1C[C@@H]2CCCC[C@@H]2N1; Phe(4-Cl) = N[C@@H](Cc1ccc(Cl)cc1)C(=O)O; hArg = N=C(N)NCCCC[C@H](N)C(=O)O; β3hR = N=C(N)NCCC[C@H](N)CC(=O)O; Cha = N[C@@H](CC1CCCCC1)C(=O)O; Nle = CCCC[C@H](N)C(=O)O; Orn = NCCC[C@H](N)C(=O)O; Sar = CNCC(=O)O
Hi! Could you send only the number? It should be in nM, unit omitted.

[Orn]F[hArg][hArg]Q[hArg]P[hArg][Cha]SHK[Sar][Oic][Nle]P[Phe(4-Cl)] [apelin polypeptide SEQ ID NO: 680]: 0.401
Ac-[Orn]F[hArg][hArg]Q[hArg]P[rhArg][Cha]SHKG[Oic][Nle]P[Phe(4-Cl)]-OH (also: reduced amide bond (CH2NH) at residue 8) [apelin polypeptide SEQ ID NO: 39]: 0.323
Ac-[Orn]F[hArg][hArg]Q[hArg]P[hArg][Cha]S[rHis]KG[Oic][Nle]P[Phe(4-Cl)]-OH (also: reduced amide bond (CH2NH) at residue 11) [apelin polypeptide SEQ ID NO: 40]: 1.45

Kindly review the next binder as well.
Item [Orn]F[hArg][hArg]Q[β3hR]P[hArg][Cha]SHKG[Oic][Nle]P[Phe(4-Cl)] [apelin polypeptide SEQ ID NO: 693] has what recorded EC50 Rat APJ Receptor? 0.505
